Value source: patent US8324258B2

# Target Of Assay: F1F0-ATPase (Bos taurus, UniProt P13621)
# Test Protocol: Inhibition of ATP hydrolysis by the F1F0-ATPase
# Format: biochemical
# Experimental Parameters: IC40: concentration for 40% inhibition
Endpoint Name: ATP Hydrolysis (IC40 μM)

{"columns": ["Smiles Entry", "Target Of Assay", "Endpoint Name", "Reading"],
 "data": [
  ["O=C(N=C(NCCc1c[nH]cn1)Nc1ccc(-c2ccccc2)cc1)c1ccc([N+](=O)[O-])cc1", "F1F0-ATPase (Bos taurus, UniProt P13621)", "ATP Hydrolysis (IC40 μM)", ">30 µM"]
]}

Item under review: CCc1cccc(NC(=NC(=O)c2cccc(Cl)c2)NCCc2c[nH]cn2)c1 . Reported ATP Hydrolysis (IC40 μM)? >20 µM

Item under review: O=C(N=C(NCCc1c[nH]cn1)Nc1ccc(-c2ccccc2)cc1)c1cccc(Br)c1 . Reported ATP Hydrolysis (IC40 μM)? >10 µM

Item under review: O=C(N=C(NCCc1c[nH]cn1)Nc1ccccc1F)c1cccc(Cl)c1 . Reported ATP Hydrolysis (IC40 μM)? >30 µM

Item under review: O=C(N=C(NCCc1c[nH]cn1)Nc1cccc2ccccc12)c1cccc(Cl)c1 . Reported ATP Hydrolysis (IC40 μM)? >10 µM

* * *

# Target Of Assay: F1F0-ATPase (Bos taurus, UniProt P13621)
# Test Protocol: Inhibition of ATP hydrolysis by the F1F0-ATPase
# Type: biochemical
# Experimental Parameters: IC40: concentration for 40% inhibition
Endpoint Name: ATP Hydrolysis (IC40 μM)

Some compounds with recorded ATP Hydrolysis (IC40 μM):
{"columns": ["Compound", "Reading"],
 "data": [
  ["O=C(N=C(NCCc1c[nH]cn1)Nc1cccc(-c2ccccc2)c1)c1cccc([N+](=O)[O-])c1 [VI-12]", ">30 µM"],
  ["COc1cccc(-c2ccc(NC(=NC(=O)c3cccc(Cl)c3)NCCc3c[nH]cn3)cc2)c1 [III-34]", ">10 µM"],
  ["N#Cc1ccc(-c2ccc(NC(=NC(=O)c3cccc(Cl)c3)NCCc3c[nH]cn3)cc2)cc1 [III-21]", ">30 µM"],
  ["O=C(N=C(NCCc1c[nH]cn1)Nc1ccccc1Cl)c1cccc(Cl)c1 [III-17]", ">20 µM"],
  ["O=C(N=C(NCCc1c[nH]cn1)Nc1ccccc1-c1ccccc1)c1ccccc1 [Compound I-7]", ">30 µM"],
  ["C[C@H](Cc1c[nH]cn1)N/C(=N/C(=O)c1cccc(Cl)c1)Nc1ccc(-c2ccccc2)cc1 [IV-6]", "<10 µM"],
  ["O=C(N=C(NCCc1c[nH]cn1)Nc1cccc(Br)c1)c1cccc(Cl)c1 [III-3]", ">10 µM"]
]}

In the following, a different compound is considered.
Item under review: N#Cc1cccc(C(=O)N=C(NCCc2c[nH]cn2)Nc2ccc(-c3ccccc3)cc2)c1 [II-6] . Reported ATP Hydrolysis (IC40 μM)? >30 µM

* * *

Listing: ATP Hydrolysis (IC40 μM) of selected compounds
# Target Of Assay: UniProt:P13621
# Test Protocol: Inhibition of ATP hydrolysis by the F1F0-ATPase
# Format: biochemical
# Experimental Parameters: IC40: concentration for 40% inhibition

{"columns": ["Smiles Entry", "ATP Hydrolysis (IC40 μM)"],
 "data": [
  ["O=C(/N=C(/NCCc1cn[nH]c1)Nc1ccc(-c2ccccc2)cc1)c1cccc(Cl)c1", ">10 µM"],
  ["O=C(N=C(NCCc1c[nH]cn1)Nc1cccc(-c2ccccc2)c1)c1ccc(Cl)c(Cl)c1", "<10 µM"],
  ["CN(C)S(=O)(=O)c1ccc(NC(=NC(=O)c2cccc(Cl)c2)NCCc2cnc[nH]2)cc1", ">30 µM"],
  ["O=C(/N=C(\\Nc1ccc(-c2ccccc2)cc1)Nc1cccc2[nH]ccc12)c1cccc(Cl)c1", ">30 µM"],
  ["O=C(N=C(NCCc1c[nH]cn1)Nc1cccc(C(F)(F)F)c1)c1cccc(Cl)c1", "<10 µM"]
]}

Item under review: O=C(N=C(NCCc1c[nH]cn1)Nc1cccc(F)c1)c1cccc(Cl)c1 . Reported ATP Hydrolysis (IC40 μM)? >30 µM

* * *

# Target Of Assay: F1F0-ATPase (Bos taurus)
# Test Protocol: Inhibition of ATP hydrolysis by the F1F0-ATPase
# Format: biochemical
# Experimental Parameters: IC40: concentration for 40% inhibition
Endpoint Name: ATP Hydrolysis (IC40 μM)

{"columns": ["Compound", "Target Of Assay", "Reading"],
 "data": [
  ["O=C(N=C(NCCc1c[nH]cn1)Nc1ccc(-c2ccccc2)cc1)c1cccc(F)c1 [II-8]", "F1F0-ATPase (Bos taurus)", ">10 µM"],
  ["O=C(/N=C(/NCCc1nc[nH]n1)Nc1ccc(-c2ccccc2)cc1)c1cccc(Cl)c1 [IV-3]", "F1F0-ATPase (Bos taurus)", "<10 µM"],
  ["CN(C)S(=O)(=O)c1cccc(NC(=NC(=O)c2cccc(Cl)c2)NCCc2cnc[nH]2)c1 [III-40]", "F1F0-ATPase (Bos taurus)", ">30 µM"]
]}

In the following, a different compound is considered.
Item under review: O=C(N=C(NCCc1c[nH]cn1)Nc1ccc(Cl)cc1)c1cccc(Cl)c1 [III-19] . Reported ATP Hydrolysis (IC40 μM)? >30 µM

* * *

# Target Of Assay: F1F0-ATPase (Bos taurus, UniProt P13621)
# Test Protocol: Inhibition of ATP hydrolysis by the F1F0-ATPase
# Type: biochemical
# Experimental Parameters: IC40: concentration for 40% inhibition
Endpoint Name: ATP Hydrolysis (IC40 μM)

Some compounds with recorded ATP Hydrolysis (IC40 μM):
{"columns": ["Smiles Entry", "Reading"],
 "data": [
  ["Cc1ccc(C(=O)N=C(NCCc2c[nH]cn2)Nc2cccc(-c3ccccc3)c2)cc1", ">10 µM"],
  ["Cc1cccc(NC(=NC(=O)c2cccc(Cl)c2)NCCc2c[nH]cn2)c1", ">20 µM"]
]}

Item under review: Cc1ccc(NC(=NC(=O)c2cccc(Cl)c2)NCCc2c[nH]cn2)cc1 . Reported ATP Hydrolysis (IC40 μM)? >20 µM

Item under review: N#Cc1cccc(C(=O)N=C(NCCc2c[nH]cn2)Nc2cccc(-c3ccccc3)c2)c1 . Reported ATP Hydrolysis (IC40 μM)? >30 µM

Item under review: C[C@@H](Cc1c[nH]cn1)N/C(=N/C(=O)c1cccc(Cl)c1)Nc1ccc(-c2ccccc2)cc1 . Reported ATP Hydrolysis (IC40 μM)? <10 µM

* * *

Listing: ATP Hydrolysis (IC40 μM) of selected compounds
# Target Of Assay: F1F0-ATPase (Bos taurus, UniProt P13621)
# Test Protocol: Inhibition of ATP hydrolysis by the F1F0-ATPase
# Type: biochemical
# Experimental Parameters: IC40: concentration for 40% inhibition

Some compounds with recorded ATP Hydrolysis (IC40 μM):
{"columns": ["Smiles Entry", "Reading"],
 "data": [
  ["CCc1ccccc1NC(=NC(=O)c1cccc(Cl)c1)NCCc1c[nH]cn1", ">10 µM"],
  ["COc1ccccc1NC(=NC(=O)c1cccc(Cl)c1)NCCc1c[nH]cn1", ">30 µM"],
  ["O=C(N=C(NCCc1c[nH]cn1)Nc1ccc(-c2ccccc2)cc1)c1cccc(Cl)c1", ">10 µM"],
  ["O=C(N=C(NCCc1c[nH]cn1)Nc1ccc(-c2ccccc2)cc1)c1ccc(Br)cc1", ">20 µM"],
  ["O=C(N=C(NCCc1c[nH]cn1)Nc1ccc(-c2ccccc2)cc1)c1cccc(C(F)(F)F)c1", ">10 µM"],
  ["O=C(N=C(NCCc1c[nH]cn1)Nc1ccc(-c2ccccc2)cc1)c1ccc(Cl)c(Cl)c1", "<10 µM"],
  ["N#Cc1ccc(C(=O)N=C(NCCc2c[nH]cn2)Nc2cccc(-c3ccccc3)c2)cc1", ">30 µM"],
  ["Cc1ccccc1NC(=NC(=O)c1cccc(Cl)c1)NCCc1c[nH]cn1", ">30 µM"]
]}

Item under review: O=C(/N=C(/NCc1cccc2[nH]ccc12)Nc1ccc(-c2ccccc2)cc1)c1cccc(Cl)c1 . Reported ATP Hydrolysis (IC40 μM)? >30 µM

* * *

# Target Of Assay: F1F0-ATPase (Bos taurus, UniProt P13621)
# Test Protocol: Inhibition of ATP synthesis by the F1F0-ATPase
# Type: biochemical
# Experimental Parameters: IC40: concentration for 40% inhibition
Endpoint Name: ATP Synthesis (IC40 μM)

Some molecules with recorded ATP Synthesis (IC40 μM):
{"columns": ["Smiles Entry", "Target Of Assay", "ATP Synthesis (IC40 μM)"],
 "data": [
  ["O=C(N=C(NCCc1c[nH]cn1)Nc1ccccc1-c1ccccc1)c1ccccc1Cl", "F1F0-ATPase (Bos taurus, UniProt P13621)", ">20 µM"],
  ["CS(=O)(=O)c1ccccc1NC(=NC(=O)c1cccc(Cl)c1)NCCc1cnc[nH]1", "F1F0-ATPase (Bos taurus, UniProt P13621)", ">20 µM"]
]}

Item under review: O=C(N=C(NCCc1c[nH]cn1)Nc1cccc(-c2ccccc2)c1)c1ccc(Br)cc1 . Reported ATP Synthesis (IC40 μM)? <10 µM

Item under review: CS(=O)(=O)c1cccc(NC(=NC(=O)c2cccc(Cl)c2)NCCc2cnc[nH]2)c1 . Reported ATP Synthesis (IC40 μM)? >20 µM

Item under review: COc1ccccc1NC(=NC(=O)c1cccc(Cl)c1)NCCc1c[nH]cn1 . Reported ATP Synthesis (IC40 μM)? >10 µM

Item under review: O=C(N=C(NCCc1c[nH]cn1)Nc1cccc(-c2ccccc2)c1)c1cccc(C(F)(F)F)c1 . Reported ATP Synthesis (IC40 μM)? <10 µM

Item under review: O=C(/N=C(/NCCc1c[nH]cn1)Nc1cccc2cc[nH]c12)c1cccc(Cl)c1 . Reported ATP Synthesis (IC40 μM)? >10 µM

Item under review: Cc1ccc(NC(=NC(=O)c2cccc(Cl)c2)NCCc2c[nH]cn2)cc1 . Reported ATP Synthesis (IC40 μM)? >10 µM
